protocol-description: Selectivity ratio of Ki for sigma1 receptor in guinea pig brain cortex membranes to Ki for recombinant human GluN1A/GluN2B receptor expressed in mouse L(tk-) cell membranes
Type: cell-based
Assign labels as follows, please: Satisfied for Ratio Ki below 4; Not satisfied for Ratio Ki equal to or exceeding 4.

compound: O=[N+]([O-])c1ccc2c(c1)C(O)CN(CCCCCc1ccccc1)CC2 (stereo unspecified)
category-label: Satisfied

compound: OC1CN(C2CCC(c3ccccc3)CC2)CCc2ccccc21 (mixture of isomers)
category-label: Not satisfied

compound: O=[N+]([O-])c1ccc2c(c1)C(O)CN(C1CCC(c3ccccc3)CC1)CC2 (mixture of isomers)
category-label: Not satisfied

compound: OC1CN(C2CCN(Cc3ccccc3)CC2)CCc2ccccc21 (stereo unspecified)
category-label: Satisfied

compound: OC1CN(Cc2ccc(-c3ccccc3)cc2)CCc2ccccc21 (stereo unspecified)
category-label: Satisfied

compound: OC1CN(CCc2ccccc2)CCc2ccccc21 (stereo unspecified)
category-label: Satisfied

compound: O=C(c1ccccc1)N1CCC(N2CCc3ccccc3C(O)C2)CC1 (stereo unspecified)
category-label: Satisfied

compound: O=[N+]([O-])c1ccc2c(c1)C(O)CN(CCCCOc1ccccc1)CC2 (stereo unspecified)
category-label: Satisfied

compound: O=[N+]([O-])c1ccc2c(c1)C(O)CN(CCCc1ccccc1)CC2 (stereo unspecified)
category-label: Not satisfied

compound: c1ccc(-c2ccc(CN3CCc4ccccc4CC3)cc2)cc1
category-label: Satisfied
